Reference for the values: patent US10039747B2

As shown below, each of these compounds has a reported IC50 value.
- subjectOfTest: H+/K+-ATPase (Sus scrofa, UniProt P19156)
- Construct: reaction buffer solution (60 mmol/l Tris-HCl buffer solution, pH 7.4) containing hog gastric vesicle
- Sequence (P19156 2-1034 limits assumed): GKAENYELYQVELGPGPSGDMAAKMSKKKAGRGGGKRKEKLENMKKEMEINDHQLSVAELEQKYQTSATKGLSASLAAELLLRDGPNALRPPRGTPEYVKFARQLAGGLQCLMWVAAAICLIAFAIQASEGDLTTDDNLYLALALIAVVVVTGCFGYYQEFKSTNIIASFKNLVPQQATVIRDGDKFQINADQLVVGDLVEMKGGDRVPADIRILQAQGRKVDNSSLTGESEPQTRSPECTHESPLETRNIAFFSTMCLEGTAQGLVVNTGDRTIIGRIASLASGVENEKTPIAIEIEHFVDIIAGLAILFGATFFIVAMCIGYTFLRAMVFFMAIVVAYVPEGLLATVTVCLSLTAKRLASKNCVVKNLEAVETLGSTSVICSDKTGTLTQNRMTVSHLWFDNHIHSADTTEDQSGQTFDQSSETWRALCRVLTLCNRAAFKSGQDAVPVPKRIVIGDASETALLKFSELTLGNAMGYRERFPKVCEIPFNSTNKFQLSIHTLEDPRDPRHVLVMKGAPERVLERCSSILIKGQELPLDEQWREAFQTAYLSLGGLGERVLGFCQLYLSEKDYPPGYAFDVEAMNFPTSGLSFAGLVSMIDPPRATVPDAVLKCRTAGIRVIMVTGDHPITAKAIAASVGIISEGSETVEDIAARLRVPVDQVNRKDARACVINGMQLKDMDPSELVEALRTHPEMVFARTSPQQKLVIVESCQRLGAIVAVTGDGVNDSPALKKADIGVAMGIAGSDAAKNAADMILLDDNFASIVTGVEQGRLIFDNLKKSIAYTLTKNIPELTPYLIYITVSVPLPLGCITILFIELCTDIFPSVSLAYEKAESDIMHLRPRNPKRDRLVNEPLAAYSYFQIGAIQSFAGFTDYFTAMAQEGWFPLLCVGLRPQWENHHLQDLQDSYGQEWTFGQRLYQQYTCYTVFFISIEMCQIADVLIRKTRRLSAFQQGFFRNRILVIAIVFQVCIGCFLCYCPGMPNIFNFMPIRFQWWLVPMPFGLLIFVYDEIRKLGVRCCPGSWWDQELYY
- Sequence (P18434 whole entry partner): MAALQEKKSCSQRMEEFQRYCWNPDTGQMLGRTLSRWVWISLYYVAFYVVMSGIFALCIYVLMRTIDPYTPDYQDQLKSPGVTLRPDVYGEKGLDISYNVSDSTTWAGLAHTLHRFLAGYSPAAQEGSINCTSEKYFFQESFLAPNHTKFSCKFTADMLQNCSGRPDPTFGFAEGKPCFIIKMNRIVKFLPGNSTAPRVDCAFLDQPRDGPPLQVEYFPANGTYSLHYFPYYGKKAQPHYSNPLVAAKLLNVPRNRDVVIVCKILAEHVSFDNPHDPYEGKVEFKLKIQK
- protocolText: Inhibition of proton pump (H+/K+-ATPase) activity in hog gastric vesicles
- studyConditions: K+ specific H+/K+-ATPase activity, pH 7.4, 37° C. for 40 minutes, malachite green
Answers without a unit are incomplete; give the number and then its unit.

{"compound": "CNC1CCc2c1cn(S(=O)(=O)c1cc(C)cnc1Cl)c2-c1ccccc1F (centres unmarked)", "IC50": "7240 nM"}

GET /values?item= CNC1CCCc2c1cn(S(=O)(=O)c1cccc(OC(F)F)c1)c2-c1ccccc1F (centres unmarked) &system= H+/K+-ATPase (Sus scrofa, UniProt P19156) returns IC50: 2000 nM

GET /values?item= CNC1CCCc2c1cn(S(=O)(=O)c1cccc(Cl)c1)c2-c1cncnc1 (centres unmarked) &system= H+/K+-ATPase (Sus scrofa, UniProt P19156) returns IC50: 40000 nM

GET /values?item= CNC1CCc2c1cn(S(=O)(=O)c1cc(C(F)(F)F)ccc1Cl)c2-c1ccccc1F (centres unmarked) &system= H+/K+-ATPase (Sus scrofa, UniProt P19156) returns IC50: 520 nM

GET /values?item= CNC1CCc2c1cn(S(=O)(=O)c1ccc(OC)nc1Cl)c2-c1ccccc1F (centres unmarked) &system= H+/K+-ATPase (Sus scrofa, UniProt P19156) returns IC50: 3620 nM

GET /values?item= CNC1CCc2c1cn(S(=O)(=O)c1cc(Cl)cc(Cl)c1)c2-c1ccccc1F (centres unmarked) &system= H+/K+-ATPase (Sus scrofa, UniProt P19156) returns IC50: 410 nM

GET /values?item= CN(C)C1CCCc2c1cn(S(=O)(=O)c1cccnc1)c2-c1ccccc1F (centres unmarked) &system= H+/K+-ATPase (Sus scrofa, UniProt P19156) returns IC50: 8000 nM

GET /values?item= CNC1CCc2c1cn(S(=O)(=O)c1cccc(Cl)c1)c2-c1ccc(C)cc1F (centres unmarked) &system= H+/K+-ATPase (Sus scrofa, UniProt P19156) returns IC50: 430 nM
